Assay: gradient 5% acetonitrile 3 min, to 50% in 2 min, to 85% in 15 min, held 3 min, 100 µL/min
Conditions: column: Zorbax Extend-C18 2.1 x 50 mm; eluents: water / acetonitrile, 0.1% formic acid
OBSERVATION_TYPE: RP-LC retention time (s)

# COMPOUND, READOUT_NUMBER
rows = [
    ("O=C(NCCc1csc(-c2ccc(F)cc2)n1)c1cccs1", 913),
    ("Cn1cc(C(=O)NCCc2cccs2)c(S(=O)(=O)N2CCSCC2)n1", 842),
    ("CCN(CC)C(=O)C1CCCN(c2ncnc3c2cnn3-c2ccccc2)C1 (stereo not given)", 881),
    ("COc1ccc(CNC(=O)CN2CCN(Cc3ccccc3)C(=O)C2=O)cc1", 684),
    ("Cc1cc2c(c(=O)n(-c3ccc(F)cc3)c(=O)n2CC(=O)Nc2ccc(C(F)(F)F)cc2)n1C", 942),
    ("CN1C(=O)C2(CCN(C(=O)CCc3ccccc3)C2)c2ccccc21 (stereo not given)", 803),
    ("Cn1nc(C(=O)N2CCCN(c3cc(-c4ccc(Cl)cc4)[nH]n3)CC2)c2ccccc21", 805),
    ("Cc1csc(NC(=O)Cn2ccc3ccc(-c4nnc(C)o4)cc32)n1", 716),
    ("COc1ccc(OC)c(NC(=O)C(=O)c2ccc[nH]2)c1", 909),
    ("Cc1nnc(-c2ccc3ccn(CC(=O)Nc4cccc(C#N)c4)c3c2)o1", 798),
]
